- protocol description: RP, Agilent ZORBAX Eclipse XDB-C18, 100 × 2.1 mm, 1.8 µm, 50 °C, 0.4 mL/min, estimated dead time 0.55 min; A: water + 0.1% formic acid; B: methanol; gradient (min/%B) 0/30 2/30 5/52 15/65 20/78 22.5/78 29/90 38/100
- run conditions: stereoisomer not certain
reported property: LC retention time (min)
Give bare numbers, in min.

# count of solved cases: 5
- NC(CS)C(=O)O (stereo not drawn): 6.31
- NCCc1c[nH]c2ccccc12: 13.4
- CCCCCCCC(=O)O: 21.4
- CCC(C)CC(=O)O (stereo not drawn): 16.7
- NC(=O)CCC(N)C(=O)O (stereo not drawn): 4.45

Batch of 3 compounds: report LC retention time for each.
1. CC(CCC(=O)O)C1CCC2C3CCC4CC(O)CCC4(C)C3CC(O)C12C (stereo not drawn)
2. O=C(O)C1CCCN1 (stereo not drawn)
3. O=C(O)C(O)Cc1c[nH]c2ccccc12 (stereo not drawn)

Marked response:
25.2
8.37
12.1

Values were extracted from the RepoRT retention time repository (doi:10.1016/j.aca.2019.02.001).
